# test protocol: Quantitative High-Throughput drug screen in 47 multiple myeloma cell lines against the NCATS MIPE library collection: KMS27_JCRB cell viability assay (AID 1918970); note: nearly all actives have a fitted effect of over 30% in size
# condition details: KMS27 myeloma cells, CellTiter-Glo ATP viability, 48 h; series mostly up to 45.8 µM
Results filed as inconclusive are left out. The source made the active and inactive calls. Calls come from the whole dose curve; as a rule, active = well fitted cell-killing curve with a large enough effect; inconclusive = small, poorly fitted or top-dose-only effect, or effect the other way; inactive = no such curve, though single readings can be large or run the other way.
API: response.call in Y (active), N (inactive)

Please let me know the test result on file for O=C(c1ccccc1)c1ccc2n1CCC2C(=O)O (centres undefined) . N

Please let me know the test result on file for "Nc1nc(Cl)nc2c1ncn2[C@H]1C[C@H](O)[C@@H](CO)O1" . Y

Please let me know the test result on file for "Oc1ccc(OCc2ccccc2)cc1" . N

Please let me know the test result on file for "COC(=O)N[C@H](C(=O)N[C@@H](Cc1ccccc1)[C@@H](O)CN(Cc1ccc(-c2ccccn2)cc1)NC(=O)[C@@H](NC(=O)OC)C(C)(C)C)C(C)(C)C" . N
